ASSAY OVERVIEW: Lipid nanoparticle size and polydispersity by dynamic light scattering
Format: physicochemical
CONDITION DESCRIPTION: LNP of lipid/DSPC/cholesterol/PEG-lipid 50:10:38.5:1.5 encapsulating hEPO mRNA
We begin with a simple list: items and their reported size (nm).

{"MOLECULE": "CCCCCCCCCCCC(=O)OCCCCCN(CCN(CCO)CCCCCOC(=O)CC(CCCCCCCC)CCCCCCCC)C1CCCCCC1", "size (nm)": 58.34}
{"MOLECULE": "CCCCCCCCC(CCCCCC)CNC(=O)CCCCCN(CCCCCO)CCN(CCCCC(COC(=O)CCCCCCC)COC(=O)CCCCCCC)C1CCCCC1 (centres unmarked)", "size (nm)": 95.78}
{"MOLECULE": "CCCCCCCCC(CCCCCC)CNC(=O)CCCCCN(CCOCCO)CCN(CCCCC(COC(=O)CCCCCCC)COC(=O)CCCCCCC)C1CCCCCCC1 (centres unmarked)", "size (nm)": 85.95}
{"MOLECULE": "CCCCCCCCCCCOC(=O)CCCCCN(CCN(CCO)CCCCCC(=O)OCC(CCCCCCCC)CCCCCCCC)C1CCCCC1", "size (nm)": 81.93}
{"MOLECULE": "CCCCCCCCCCCCCCCCOC(=O)CCCCCN(CCN(CCO)CCCCCC(=O)OCC(CCCCCCCC)CCCCCCCC)C1CCCCC1", "size (nm)": 66.62}
{"MOLECULE": "CCCCCCCCCCCCCCCCOC(=O)CCCCCN(CCN(CCO)CCCCCC(=O)OCC(CCCCCCCC)CCCCCCCC)C1CCCCCCC1", "size (nm)": 56.62}
{"MOLECULE": "CCCCCCCCC(CCCCCC)COC(=O)CCCCCN(CCCCN(CCO)CCCCC(COC(=O)CCCCCCC)COC(=O)CCCCCCC)C1CC1 (centres unmarked)", "size (nm)": 78.4}
{"MOLECULE": "CCCCCCCCC(CCCCCCCC)CNC(=O)CCCCCN(CCN(CCCO)CCCCCC(=O)OCC(CCCCCCCC)CCCCCCCC)C1CCC1", "size (nm)": 84.12}
{"MOLECULE": "CCCCCCCCCCCOC(=O)CCCCCN(CCN(CCO)CCCCCC(=O)N(CCCCCCCC)CCCCCCCC)C1CCCCC1", "size (nm)": 101.70}
{"MOLECULE": "CCCCCCCCC(CCCCCCCC)COC(=O)CCCCCN(CCO)CCN(CCCCCOC(=O)OCC(CCCCCCCC)CCCCCCCC)C1CCCCC1", "size (nm)": 74.57}
{"MOLECULE": "CCCCCCCC/C=C\\CCCCCCCC(=O)OCCCCCN(CCN(CCO)CCCCCC(=O)OCC(CCCCCCCC)CCCCCCCC)C1CCCCC1", "size (nm)": 78.27}
{"MOLECULE": "CCCCCCCCC(CCCCCCCC)COC(=O)CCCCCN(CCO)CCN(CCCCCC(=O)OCC(CCCCCCCC)CCCCCCCC)C1CCC(F)(F)CC1", "size (nm)": 56.3}
{"MOLECULE": "CCCCCCCC(=O)OCC(CCCCN(CCO)CCN(CCCCC(COC(=O)CCCCCCC)COC(=O)CCCCCCC)C1CCCCCC1)COC(=O)CCCCCCC", "size (nm)": 86.16}
{"MOLECULE": "CCCCCCCCC(CCCCCCCC)COC(=O)CCCCCN(CCO)CCN(CCCCCC(=O)OCC(CCCCCCCC)CCCCCCCC)Cc1ccc(O)cc1", "size (nm)": 57.44}
{"MOLECULE": "CCCCCCCCCCCC(=O)OCCCCCN(CCN(CCO)CCCCCOC(=O)CC(CCCCCCCC)CCCCCCCC)C1CC1", "size (nm)": 64.49}
{"MOLECULE": "CCCCCCCCC(CCCCCC)CNC(=O)CCCCCN(CCO)CCN(CCCCC(COC(=O)CCCCCCC)COC(=O)CCCCCCC)C1CC1 (centres unmarked)", "size (nm)": 70.67}
{"MOLECULE": "CCCCCCCCCCCOC(=O)CCCCCN(CCO)CCN(CCCCCC(=O)OCC(CCCCCCCC)CCCCCCCC)C1CCCCC1", "size (nm)": 63.5}
{"MOLECULE": "CCCCCCCC/C=C\\CCCCCCCC(=O)OCCCCCN(CCO)CCN(CCCCCNC(=O)CC(CCCCCC)CCCCCCCC)C1CCCCCC1 (centres unmarked)", "size (nm)": 83.28}
{"MOLECULE": "CCCCCCCCC(CCCCCCCC)COC(=O)CCCCCN(CCO)CCN(CCCCCC(=O)OCC(CCCCCCCC)CCCCCCCC)C1CCCCC1C (centres unmarked)", "size (nm)": 55.14}
{"MOLECULE": "CCCCCCCCCCCOC(=O)CCCCCN(CC=C(C)C)CCN(CCO)CCCCCC(=O)OCC(CCCCCCCC)CCCCCCCC", "size (nm)": 69.75}
